// provenance: patent US20240308976A1

target: GSPT1 (Homo sapiens, UniProt P15170+Q96SW2); construct: CAL-51 cells were purchased from DSMZ (cat. Number ACC302); host or cells: CAL-51; assay: Immunofluorescence assay for activity to degrade GSPT1 in CAL-51 cells; assay type: cell-based; conditions: 6 h treatment, read-out: IF Class (GSPT1 degradation, DC50)
Sequence (P15170 whole entry): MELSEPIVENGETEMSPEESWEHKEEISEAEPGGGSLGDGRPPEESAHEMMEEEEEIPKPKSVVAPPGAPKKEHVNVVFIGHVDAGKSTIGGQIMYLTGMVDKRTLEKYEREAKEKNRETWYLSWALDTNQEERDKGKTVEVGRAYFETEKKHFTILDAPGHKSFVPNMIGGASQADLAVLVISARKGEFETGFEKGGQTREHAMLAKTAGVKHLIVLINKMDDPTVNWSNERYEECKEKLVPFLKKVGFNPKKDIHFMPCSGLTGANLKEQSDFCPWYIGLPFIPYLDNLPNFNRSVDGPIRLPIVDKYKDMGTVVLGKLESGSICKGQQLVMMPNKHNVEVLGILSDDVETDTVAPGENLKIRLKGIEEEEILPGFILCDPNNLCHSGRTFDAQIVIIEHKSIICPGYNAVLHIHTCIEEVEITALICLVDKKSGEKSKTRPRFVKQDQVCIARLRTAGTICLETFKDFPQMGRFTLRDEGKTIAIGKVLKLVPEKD
Sequence (Q96SW2 whole entry): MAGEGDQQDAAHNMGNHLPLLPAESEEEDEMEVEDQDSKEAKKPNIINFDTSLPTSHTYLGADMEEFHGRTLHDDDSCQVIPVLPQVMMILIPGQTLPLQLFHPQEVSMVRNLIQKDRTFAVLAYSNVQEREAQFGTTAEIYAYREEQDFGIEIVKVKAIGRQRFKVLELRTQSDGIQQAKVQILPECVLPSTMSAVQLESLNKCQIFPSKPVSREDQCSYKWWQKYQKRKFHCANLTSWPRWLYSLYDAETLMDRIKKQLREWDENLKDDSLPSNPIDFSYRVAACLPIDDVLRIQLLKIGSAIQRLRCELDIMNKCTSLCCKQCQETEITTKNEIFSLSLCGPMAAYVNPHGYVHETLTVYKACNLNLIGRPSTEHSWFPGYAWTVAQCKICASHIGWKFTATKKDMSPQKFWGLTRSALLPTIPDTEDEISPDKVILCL
Sequence (Q16531 2-1140 partner limits assumed): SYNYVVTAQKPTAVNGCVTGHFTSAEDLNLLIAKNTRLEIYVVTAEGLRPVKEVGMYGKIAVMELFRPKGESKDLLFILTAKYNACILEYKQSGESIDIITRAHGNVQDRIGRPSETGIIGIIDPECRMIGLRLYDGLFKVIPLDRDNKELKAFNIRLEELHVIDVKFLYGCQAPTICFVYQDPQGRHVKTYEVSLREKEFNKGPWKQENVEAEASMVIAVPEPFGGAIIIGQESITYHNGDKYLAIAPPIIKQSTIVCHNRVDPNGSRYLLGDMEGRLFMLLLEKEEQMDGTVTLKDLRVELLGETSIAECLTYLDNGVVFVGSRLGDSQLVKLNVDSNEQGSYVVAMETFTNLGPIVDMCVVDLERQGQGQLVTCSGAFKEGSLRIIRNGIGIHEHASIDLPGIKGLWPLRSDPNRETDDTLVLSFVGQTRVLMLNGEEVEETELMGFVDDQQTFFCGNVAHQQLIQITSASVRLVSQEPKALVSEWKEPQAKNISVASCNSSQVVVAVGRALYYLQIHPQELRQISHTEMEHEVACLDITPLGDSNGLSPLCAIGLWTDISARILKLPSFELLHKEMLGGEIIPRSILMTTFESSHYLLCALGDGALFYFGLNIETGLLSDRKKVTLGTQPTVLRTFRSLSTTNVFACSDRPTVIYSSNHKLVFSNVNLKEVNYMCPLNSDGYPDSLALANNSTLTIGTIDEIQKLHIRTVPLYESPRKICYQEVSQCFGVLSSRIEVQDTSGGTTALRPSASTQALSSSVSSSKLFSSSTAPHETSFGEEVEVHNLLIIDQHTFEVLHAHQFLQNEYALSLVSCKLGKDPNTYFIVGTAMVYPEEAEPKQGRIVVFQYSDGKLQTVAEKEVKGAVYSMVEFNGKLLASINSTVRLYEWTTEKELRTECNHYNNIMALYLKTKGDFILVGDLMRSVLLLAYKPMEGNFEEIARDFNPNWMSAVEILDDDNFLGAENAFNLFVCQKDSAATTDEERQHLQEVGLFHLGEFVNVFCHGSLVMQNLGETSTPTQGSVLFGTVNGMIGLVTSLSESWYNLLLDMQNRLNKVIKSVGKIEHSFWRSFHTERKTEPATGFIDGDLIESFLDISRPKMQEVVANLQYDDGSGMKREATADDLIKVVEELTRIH
Quick reference for DC50 among some molecules

Reference set, count: 7
Cc1cc(NC(=O)OC2CN(c3cc(F)c(C4CCC(=O)NC4=O)c(F)c3)C2)c(F)cc1Cl (centres unmarked)	≤ 30 nM
O=C1CCC(c2c(F)cc(N3CC(OC(=O)NC4CCOCC4)C3)cc2F)C(=O)N1 (centres unmarked)	> 300 nM
COc1c(N2CC(OC(=O)Nc3ccc(C)c(Cl)c3)C2)ccc(C2CCC(=O)NC2=O)c1Cl (centres unmarked)	> 300 nM
O=C1CCC(c2c(F)cc(N3CC(OC(=O)NC45CC(CF)(C4)C5)C3)cc2F)C(=O)N1 (centres unmarked)	30 to 300 nM
O=C1CCC(c2c(F)cc(N3CC(OC(=O)N[C@@H]4CCCOC4)C3)cc2F)C(=O)N1 (some centres unmarked)	> 300 nM
O=C1CCC(c2c(F)cc(N3CC(NC(=O)Nc4cc(F)cc(Cl)c4)C3)cc2F)C(=O)N1 (centres unmarked)	30 to 300 nM
N#Cc1cc(Cl)cc(NC(=O)OC2CN(c3cc(F)c(C4CCC(=O)NC4=O)c(F)c3)C2)c1 (centres unmarked)	30 to 300 nM

Attention now shifts to the item below.
q: Give recorded DC50. O=C1CCC(c2c(F)cc(N3CC(OC(=O)NC4CCCCCC4)C3)cc2F)C(=O)N1 (centres unmarked)
a: ≤ 30 nM

* * *

target: GSPT1 (Homo sapiens, UniProt P15170+Q96SW2); construct: CAL-51 cells were purchased from DSMZ (cat. Number ACC302); host or cells: CAL-51; experiment: Immunofluorescence assay for activity to degrade GSPT1 in CAL-51 cells; type: cell-based; settings: 6 h treatment, read-out: IF Class (GSPT1 degradation, DC50)
measure: DC50

Cc1cc(C)cc(NC(=O)OC2CN(c3ccc(C4CCC(=O)NC4=O)c(Cl)c3)C2)c1 (centres unmarked)	> 0.3 µM

q: Give recorded DC50. O=C1CCC(c2ccc(N3CC(NC(=O)Nc4cc(OC(F)(F)F)ccn4)C3)cc2)C(=O)N1 (centres unmarked)
a: > 0.3 µM

q: Give recorded DC50. O=C1CCC(c2c(F)cc(N3CC(NC(=O)Nc4cc(F)cc(OC(F)F)c4)C3)cc2F)C(=O)N1 (centres unmarked)
a: 0.03 to 0.3 µM

q: Give recorded DC50. O=C1CCC(c2c(F)cc(N3CC(OC(=O)NC4CC5(CCC5)C4)C3)cc2F)C(=O)N1 (centres unmarked)
a: ≤ 0.03 µM

q: Give recorded DC50. O=C1CCC(c2c(F)cc(N3CC(OC(=O)N4CCCC4)C3)cc2F)C(=O)N1 (centres unmarked)
a: > 0.3 µM

q: Give recorded DC50. O=C1CCC(c2c(F)cc(N3CC(NC(=O)Nc4cccc(OC(F)(F)F)c4)C3)cc2F)C(=O)N1 (centres unmarked)
a: 0.03 to 0.3 µM

q: Give recorded DC50. O=C1CCC(c2c(F)cc(N3CC(OC(=O)NC4CCC4)C3)cc2F)C(=O)N1 (centres unmarked)
a: > 0.3 µM

q: Give recorded DC50. Cc1ccc(NC(=O)OC2CN(c3ccc(C4CCC(=O)NC4=O)c(F)c3)C2)cc1Cl (centres unmarked)
a: ≤ 0.03 µM

* * *

molecular target: GSPT1 (Homo sapiens, UniProt P15170+Q96SW2); construct: CAL-51 cells were purchased from DSMZ (cat. Number ACC302); host or cells: CAL-51; assay: Immunofluorescence assay for activity to degrade GSPT1 in CAL-51 cells; assay type: cell-based; settings: 6 h treatment, read-out: IF Class (GSPT1 degradation, DC50)
Quick reference for DC50 among some molecules

O=C1CCC(c2ccc(N3CC(NC(=O)Nc4cccc(OC(F)(F)F)c4)C3)cc2Cl)C(=O)N1 (stereo not shown)	> 300 nM
C[C@H]1C[C@@H](NC(=O)OC2CN(c3cc(F)c(C4CCC(=O)NC4=O)c(F)c3)C2)C1 (stereo partly shown)	≤ 30 nM
Cc1cc(C)cc(NC(=O)NC2CN(c3cc(F)c(C4CCC(=O)NC4=O)c(F)c3)C2)c1 (stereo not shown)	≤ 30 nM

Attention now shifts to the item below.
q: Would you please give the reported DC50 of Cc1c(Cl)cc(NC(=O)NC2CN(c3cc(F)c(C4CCC(=O)NC4=O)c(F)c3)C2)cc1CN1CCOCC1 (stereo not shown) with GSPT1 (Homo sapiens, UniProt P15170+Q96SW2)?
a: ≤ 30 nM

* * *

molecular target: GSPT1 (Homo sapiens, UniProt P15170+Q96SW2); construct: CAL-51 cells were purchased from DSMZ (cat. Number ACC302); host or cells: CAL-51; assay: Immunofluorescence assay for activity to degrade GSPT1 in CAL-51 cells; type: cell-based; details: 6 h treatment, read-out: IF Class (GSPT1 degradation, DC50)
measure: DC50

Reference set, count: 5
C[C@H](NC(=O)OC1CN(c2cc(F)c(C3CCC(=O)NC3=O)c(F)c2)C1)c1ccccc1 (stereo partly shown)	> 300 nM
CO[C@H]1CC[C@@H](NC(=O)OC2CN(c3cc(F)c(C4CCC(=O)NC4=O)c(F)c3)C2)CC1 (stereo partly shown)	> 300 nM
Cc1ccc(N(C)C(=O)OC2CN(c3cc(F)c(C4CCC(=O)NC4=O)c(F)c3)C2)cc1Cl (stereo not shown)	30 to 300 nM
O=C1CCC(c2c(F)cc(N3CC(OC(=O)NC45CC(N6CCCCC6)(C4)C5)C3)cc2F)C(=O)N1 (stereo not shown)	≤ 30 nM
O=C1CCC(c2c(F)cc(N3CC(NC(=O)N[C@H]4C[C@H](c5ccccc5)C4)C3)cc2F)C(=O)N1 (stereo partly shown)	≤ 30 nM

q: Would you please give the reported DC50 of O=C1CCC(c2c(F)cc(N3CC(OC(=O)Nc4ccc(F)c(OC(F)F)c4)C3)cc2F)C(=O)N1 (stereo not shown) with GSPT1 (Homo sapiens, UniProt P15170+Q96SW2)?
a: ≤ 30 nM

q: Would you please give the reported DC50 of O=C1CCC(c2c(F)cc(N3CC(OC(=O)NC45CC(F)(C4)C5)C3)cc2F)C(=O)N1 (stereo not shown) with GSPT1 (Homo sapiens, UniProt P15170+Q96SW2)?
a: > 300 nM

* * *

Quick reference for DC50 among some compounds
target: GSPT1 (Homo sapiens, UniProt P15170+Q96SW2); construct: CAL-51 cells were purchased from DSMZ (cat. Number ACC302); host or cells: CAL-51; test: Immunofluorescence assay for activity to degrade GSPT1 in CAL-51 cells; format: cell-based; settings: 6 h treatment, read-out: IF Class (GSPT1 degradation, DC50)

q: Give recorded DC50. O=C1CCC(c2c(F)cc(N3CC(OC(=O)N4CC5(COC5)C4)C3)cc2F)C(=O)N1 (stereo not drawn)
a: > 300 nM

q: Give recorded DC50. CCC(C)CNC(=O)OC1CN(c2cc(F)c(C3CCC(=O)NC3=O)c(F)c2)C1 (stereo not drawn)
a: 30 to 300 nM

q: Give recorded DC50. Cc1ccc(NC(=O)OC2CN(c3ccc(C4CCC(=O)NC4=O)cc3)C2)cc1Cl (stereo not drawn)
a: 30 to 300 nM

q: Give recorded DC50. O=C1CCC(c2c(F)cc(N3CC(OC(=O)NCC45C[C@H]6C[C@@H](C4)C[C@@H](C5)C6)C3)cc2F)C(=O)N1 (stereo partly drawn)
a: ≤ 30 nM

q: Give recorded DC50. CO[C@H]1CC[C@H](NC(=O)OC2CN(c3cc(F)c(C4CCC(=O)NC4=O)c(F)c3)C2)CC1 (stereo partly drawn)
a: 30 to 300 nM

q: Give recorded DC50. O=C1CCC(c2c(F)cc(N3CC(NC(=O)Nc4cc(-c5ccccc5)ccn4)C3)cc2F)C(=O)N1 (stereo not drawn)
a: > 300 nM

q: Give recorded DC50. O=C1CCC(c2c(F)cc(N3CC(OC(=O)N[C@H]4C[C@H](c5ccccc5)C4)C3)cc2F)C(=O)N1 (stereo partly drawn)
a: ≤ 30 nM

q: Give recorded DC50. Cc1cc(NC(=O)OC2CN(c3cc(F)c(C4CCC(=O)NC4=O)c(F)c3)C2)cc(CN2CC3CC2CO3)c1C (stereo not drawn)
a: ≤ 30 nM

q: Give recorded DC50. O=C1CCC(c2c(F)cc(N3CC(OC(=O)NCC4CCOCC4)C3)cc2F)C(=O)N1 (stereo not drawn)
a: > 300 nM

q: Give recorded DC50. CC1(NC(=O)OC2CN(c3cc(F)c(C4CCC(=O)NC4=O)c(F)c3)C2)CCCCC1 (stereo not drawn)
a: ≤ 30 nM
